- study.system: human HDAC6 (Homo sapiens)
- Construct: GST (N); purchased BioMol SE-508; host or cells: baculovirus / Sf9 cells
- Sequence (Q9UBN7 1-1215): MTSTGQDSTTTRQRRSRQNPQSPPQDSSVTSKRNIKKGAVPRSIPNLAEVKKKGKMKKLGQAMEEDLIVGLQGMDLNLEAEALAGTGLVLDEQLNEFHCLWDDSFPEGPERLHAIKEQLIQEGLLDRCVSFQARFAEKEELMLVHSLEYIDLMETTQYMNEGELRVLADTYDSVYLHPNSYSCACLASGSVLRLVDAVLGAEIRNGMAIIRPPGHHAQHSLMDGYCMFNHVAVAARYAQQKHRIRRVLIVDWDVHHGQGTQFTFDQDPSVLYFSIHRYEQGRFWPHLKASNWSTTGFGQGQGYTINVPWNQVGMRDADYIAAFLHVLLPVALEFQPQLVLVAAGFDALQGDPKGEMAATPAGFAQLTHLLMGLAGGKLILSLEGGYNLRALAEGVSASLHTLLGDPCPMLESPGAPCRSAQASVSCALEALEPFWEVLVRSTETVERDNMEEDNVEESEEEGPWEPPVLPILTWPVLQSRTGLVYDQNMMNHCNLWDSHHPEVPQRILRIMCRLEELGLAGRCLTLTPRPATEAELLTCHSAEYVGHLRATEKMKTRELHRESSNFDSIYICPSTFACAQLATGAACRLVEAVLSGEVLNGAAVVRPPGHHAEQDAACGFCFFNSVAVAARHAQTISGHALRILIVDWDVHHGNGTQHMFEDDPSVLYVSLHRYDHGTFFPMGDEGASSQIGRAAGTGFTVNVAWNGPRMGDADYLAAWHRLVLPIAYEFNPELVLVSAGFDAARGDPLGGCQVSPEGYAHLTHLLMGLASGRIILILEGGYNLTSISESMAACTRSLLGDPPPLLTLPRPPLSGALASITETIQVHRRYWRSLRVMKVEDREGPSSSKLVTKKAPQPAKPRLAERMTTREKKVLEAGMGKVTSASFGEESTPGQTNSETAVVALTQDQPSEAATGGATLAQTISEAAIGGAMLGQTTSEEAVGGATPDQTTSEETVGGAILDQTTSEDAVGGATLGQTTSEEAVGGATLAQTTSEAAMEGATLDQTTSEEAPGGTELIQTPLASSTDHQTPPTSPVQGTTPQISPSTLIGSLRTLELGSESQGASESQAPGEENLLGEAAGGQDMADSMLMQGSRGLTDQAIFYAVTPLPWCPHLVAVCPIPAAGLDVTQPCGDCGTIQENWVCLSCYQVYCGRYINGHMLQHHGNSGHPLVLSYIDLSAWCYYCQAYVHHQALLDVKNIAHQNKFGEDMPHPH
- test.details: HDAC6 enzymatic activity assay (fluorogenic peptide)
- Assay type: biochemical
- applied.conditions: 10-dose, 3-fold serial dilution, triplicate
pIC50: −log10 of the molar value.
Short version: pIC50 at least 7 is satisfied, less is not satisfied.

{"structure.smiles": "C[C@H](CCC(=O)NCC(=O)NCc1ccc(C(=O)NO)cc1)[C@H]1CC[C@H]2[C@@H]3[C@@H](O)C[C@@H]4C[C@H](O)CC[C@]4(C)[C@H]3CC[C@]12C", "class.name": "satisfied"}
{"structure.smiles": "C[C@H](CCC(=O)NCc1ccc(C(=O)Nc2ccccc2N)cc1)[C@H]1CC[C@H]2[C@@H]3[C@@H](O)C[C@@H]4C[C@H](O)CC[C@]4(C)[C@H]3CC[C@]12C", "class.name": "not satisfied"}
{"structure.smiles": "C[C@H](CCC(=O)NCc1ccc(C(=O)NCc2ccc(C(=O)NO)cc2)cc1)[C@H]1CC[C@H]2[C@@H]3[C@@H](O)C[C@@H]4C[C@H](O)CC[C@]4(C)[C@H]3CC[C@]12C", "class.name": "satisfied"}
{"structure.smiles": "C[C@H](CCC(=O)NCc1ccc(C(=O)NO)cc1)[C@H]1CC[C@H]2[C@@H]3[C@@H](O)C[C@@H]4C[C@H](O)CC[C@]4(C)[C@H]3CC[C@]12C", "class.name": "satisfied"}
